- Tested on: NCI-H2228
- EXPERIMENTAL PROTOCOL: relative viability (nuclei count vs DMSO), 5 days (fraction); higher = more cells survive
- CONDITION DESCRIPTION: first compound 0.2 µM
RECORDED ENDPOINT: relative viability
When you answer, write just the number.

Value of measured relative viability for the entry Cc1csc(=NC2CCCCC2)n1/N=C/c1ccc(O)c(O)c1O [MIM1] + Nc1nc2[nH]cc(CCc3ccc(C(=O)N[C@@H](CCC(=O)O)C(=O)O)cc3)c2c(=O)[nH]1 [Pemetrexed] (partner 0.2 µM) : 0.386

The recorded relative viability for CN1CCN(CCOc2cc(OC3CCOCC3)c3c(Nc4c(Cl)ccc5c4OCO5)ncnc3c2)CC1 [Saracatinib] + CS(=O)(=O)N1CCN(Cc2cc3nc(-c4cccc5[nH]ncc45)nc(N4CCOCC4)c3s2)CC1 [Pictilisib] (partner 1 µM) is 0.206

Entry under test: CCNC(=O)c1noc(-c2cc(C(C)C)c(O)cc2O)c1-c1ccc(CN2CCOCC2)cc1 [Luminespib] + O=C(c1cc(Cc2n[nH]c(=O)c3ccccc23)ccc1F)N1CCN(C(=O)C2CC2)CC1 [Olaparib] (partner 8 µM) . Its relative viability was 0.142

For this compound ( Cc1csc(=NC2CCCCC2)n1/N=C/c1ccc(O)c(O)c1O [MIM1] + CCNC(=O)c1noc(-c2cc(C(C)C)c(O)cc2O)c1-c1ccc(CN2CCOCC2)cc1 [Luminespib] (partner 0.01 µM) ), measured relative viability is 0.18

The reported value for Cc1csc(=NC2CCCCC2)n1/N=C/c1ccc(O)c(O)c1O [MIM1] + CS(=O)(=O)CCNCc1ccc(-c2ccc3ncnc(Nc4ccc(OCc5cccc(F)c5)c(Cl)c4)c3c2)o1 [Lapatinib] (partner 2 µM) in terms of relative viability is 1.25

The compound listed as Cc1csc(=NC2CCCCC2)n1/N=C/c1ccc(O)c(O)c1O [MIM1] + COc1cc2c(Oc3ccc(NC(=O)C4(C(=O)Nc5ccc(F)cc5)CC4)cc3F)ccnc2cc1OCCCN1CCOCC1 [Foretinib] (partner 0.25 µM) shows relative viability equal to 1.06

Item: Cc1csc(=NC2CCCCC2)n1/N=C/c1ccc(O)c(O)c1O [MIM1] + Cc1nc(Nc2ncc(C(=O)Nc3c(C)cccc3Cl)s2)cc(N2CCN(CCO)CC2)n1 [Dasatinib] (partner 0.075 µM) | relative viability: 0.505

// CCNC(=O)c1noc(-c2cc(C(C)C)c(O)cc2O)c1-c1ccc(CN2CCOCC2)cc1 [Luminespib] + CC(=O)Nc1cccc(-n2c(=O)n(C3CC3)c(=O)c3c(Nc4ccc(I)cc4F)n(C)c(=O)c(C)c32)c1 [Trametinib] (partner 0.02 µM) : relative viability value = 0.106

The recorded relative viability for CCNC(=O)c1noc(-c2cc(C(C)C)c(O)cc2O)c1-c1ccc(CN2CCOCC2)cc1 [Luminespib] + C[C@]1(O)C[C@@H](c2nc(-c3ccc4ccc(-c5ccccc5)nc4c3)c3c(N)nccn32)C1 [Linsitinib] (partner 1 µM) is 0.199

Entry CN1CCN(CCOc2cc(OC3CCOCC3)c3c(Nc4c(Cl)ccc5c4OCO5)ncnc3c2)CC1 [Saracatinib] + CC(C)C[C@H](NC(=O)[C@H](Cc1ccccc1)NC(=O)c1cnccn1)B(O)O [Bortezomib] (partner 0.002 µM) ; relative viability = 0.684

Entry CN1CCN(CCOc2cc(OC3CCOCC3)c3c(Nc4c(Cl)ccc5c4OCO5)ncnc3c2)CC1 [Saracatinib] + N=C(N)NC(=N)NCCc1ccccc1 [Phenformin] (partner 250 µM) ; relative viability = 0.327

Recorded result, CCNC(=O)c1noc(-c2cc(C(C)C)c(O)cc2O)c1-c1ccc(CN2CCOCC2)cc1 [Luminespib] + CS(=O)(=O)CCNCc1ccc(-c2ccc3ncnc(Nc4ccc(OCc5cccc(F)c5)c(Cl)c4)c3c2)o1 [Lapatinib] (partner 2 µM) , relative viability: 0.117
